# TESTED ON: 11β-HSD1 (Homo sapiens, UniProt P28845)
# Sequence (P28845 whole entry): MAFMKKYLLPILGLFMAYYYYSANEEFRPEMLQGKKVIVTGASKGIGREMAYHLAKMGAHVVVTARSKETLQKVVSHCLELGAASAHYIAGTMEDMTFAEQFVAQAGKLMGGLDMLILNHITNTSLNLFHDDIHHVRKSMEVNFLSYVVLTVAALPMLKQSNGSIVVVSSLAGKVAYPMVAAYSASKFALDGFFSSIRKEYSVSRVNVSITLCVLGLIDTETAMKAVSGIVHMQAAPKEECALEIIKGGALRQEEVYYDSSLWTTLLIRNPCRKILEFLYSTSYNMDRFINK
# CONDITION SUMMARY: Biological Test Example 1; 100 nM compound; 0.1 µM
Lab note: compare Average % inhibition at 100 nM against 70%. Equal or greater, write true. Smaller, write false.

Input line: Say whether C[C@@H](c1ccc(-c2ccc(F)cc2F)cc1)N1CCC(CCO)(c2cccs2)OC1=O (single isomer, unassigned) [EXAMPLE 233 Isomer 2] shows Average % inhibition at 100 nM of 70% or more.
Output line: false

Input line: Say whether C[C@@H](c1ccccc1)N1CCC(CO)(c2ccc(F)cc2)OC1=O (single isomer, unassigned) [EXAMPLE 114 Isomer 1] shows Average % inhibition at 100 nM of 70% or more.
Output line: false

Input line: Say whether COc1ccc([C@H](C)N2CCC(CC(O)CO)(c3ccccc3)OC2=O)cc1 (single isomer, unassigned) [EXAMPLE 286 Isomer 4] shows Average % inhibition at 100 nM of 70% or more.
Output line: false

Input line: Say whether CC[C@@H](c1ccc(Br)cc1)N1CC[C@](CC(O)CO)(c2ccccc2)OC1=O (single isomer, unassigned) [EXAMPLE 239 Isomer 2] shows Average % inhibition at 100 nM of 70% or more.
Output line: true
